Property: solubility (mole fraction); scope: individual compounds
SETUP_CONDITIONS: in water, 318.65 K
Just the number, please.

>>> observed_measurement("O=C(O)/C=C\\C(=O)O")
0.174

Next up:
Please give the measured solubility (mole fraction) for this compound: O=C(O)CC(O)C(=O)O (configuration not stated)
0.209

====

Property: solubility (mole fraction); scope: individual compounds
SETUP_CONDITIONS: in water, 308.15 K

>>> observed_measurement("O=C(O)/C=C\\C(=O)O")
0.142

Next up:
Please give the measured solubility (mole fraction) for this compound: O=C(O)CC(O)C(=O)O (configuration not stated)
0.181
